target-desc: Muscarinic acetylcholine receptor M2 (Homo sapiens, UniProt P08172)
Sequence (P08172 whole entry): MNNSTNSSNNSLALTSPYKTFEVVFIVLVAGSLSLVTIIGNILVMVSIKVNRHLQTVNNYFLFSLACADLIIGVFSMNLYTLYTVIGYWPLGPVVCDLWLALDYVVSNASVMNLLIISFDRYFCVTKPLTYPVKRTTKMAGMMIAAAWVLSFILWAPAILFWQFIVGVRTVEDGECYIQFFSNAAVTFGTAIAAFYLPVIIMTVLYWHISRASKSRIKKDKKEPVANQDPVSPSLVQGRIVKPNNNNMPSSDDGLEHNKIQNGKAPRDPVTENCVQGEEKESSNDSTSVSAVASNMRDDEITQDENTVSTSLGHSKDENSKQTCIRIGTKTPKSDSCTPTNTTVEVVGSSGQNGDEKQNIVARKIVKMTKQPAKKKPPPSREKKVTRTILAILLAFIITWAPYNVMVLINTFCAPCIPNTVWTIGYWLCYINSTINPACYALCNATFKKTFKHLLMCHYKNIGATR
pKi: −log10 of the molar value.
metric: pKi

Exercise: Look up pKi: N#Cc1cc(F)cc(C#Cc2csc(F)n2)c1
Key: < 5.00

====

target-desc: Alpha-2C adrenergic receptor (Homo sapiens)
Sequence (P18825 whole entry): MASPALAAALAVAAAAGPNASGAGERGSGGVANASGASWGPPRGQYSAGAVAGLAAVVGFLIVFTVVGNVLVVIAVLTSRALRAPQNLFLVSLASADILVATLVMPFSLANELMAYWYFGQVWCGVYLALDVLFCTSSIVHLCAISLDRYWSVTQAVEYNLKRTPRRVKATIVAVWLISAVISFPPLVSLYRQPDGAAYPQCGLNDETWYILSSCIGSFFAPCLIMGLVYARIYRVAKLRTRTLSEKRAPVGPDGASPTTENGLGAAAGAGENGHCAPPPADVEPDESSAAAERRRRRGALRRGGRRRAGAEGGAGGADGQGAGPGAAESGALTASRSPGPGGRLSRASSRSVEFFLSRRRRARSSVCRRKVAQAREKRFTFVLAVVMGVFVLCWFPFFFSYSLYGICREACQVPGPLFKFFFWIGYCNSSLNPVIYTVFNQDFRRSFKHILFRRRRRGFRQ
pKi: −log10 of the molar value.
metric: pKi

Exercise: What pKi appears in the records for this compound with Alpha-2C adrenergic receptor (Homo sapiens)? N#Cc1cc(F)cc(C#Cc2csc(F)n2)c1
Key: < 5.00

====

target-desc: 5-hydroxytryptamine receptor 1B (Homo sapiens, UniProt P28222)
Sequence (P28222 whole entry): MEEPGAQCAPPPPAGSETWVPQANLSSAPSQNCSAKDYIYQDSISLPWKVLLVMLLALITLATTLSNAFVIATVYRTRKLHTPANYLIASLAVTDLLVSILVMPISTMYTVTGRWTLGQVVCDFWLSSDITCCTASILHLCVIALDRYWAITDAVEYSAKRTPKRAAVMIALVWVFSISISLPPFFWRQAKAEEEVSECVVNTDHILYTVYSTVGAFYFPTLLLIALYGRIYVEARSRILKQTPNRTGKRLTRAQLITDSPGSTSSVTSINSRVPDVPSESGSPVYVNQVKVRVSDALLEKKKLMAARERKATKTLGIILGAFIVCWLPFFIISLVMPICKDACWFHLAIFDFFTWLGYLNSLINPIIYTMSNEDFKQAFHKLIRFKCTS
pKi: −log10 of the molar value.
metric: pKi

Exercise: Look at this compound and give its reported pKi. N#Cc1cc(F)cc(C#Cc2csc(F)n2)c1
Key: < 5.00

====

target-desc: Histamine H4 receptor (Homo sapiens)
Sequence (Q9H3N8 whole entry): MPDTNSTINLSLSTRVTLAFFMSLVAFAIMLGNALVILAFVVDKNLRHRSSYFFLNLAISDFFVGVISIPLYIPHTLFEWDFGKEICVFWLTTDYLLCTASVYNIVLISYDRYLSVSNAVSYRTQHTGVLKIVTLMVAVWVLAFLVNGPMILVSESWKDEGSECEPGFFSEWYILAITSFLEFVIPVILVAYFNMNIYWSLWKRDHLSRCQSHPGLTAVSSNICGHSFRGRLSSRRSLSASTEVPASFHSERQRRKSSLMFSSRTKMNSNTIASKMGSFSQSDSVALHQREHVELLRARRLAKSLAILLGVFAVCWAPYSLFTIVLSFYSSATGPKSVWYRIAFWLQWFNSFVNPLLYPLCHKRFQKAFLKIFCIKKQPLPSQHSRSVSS
pKi: −log10 of the molar value.
metric: pKi

Exercise: API: value(readout= pKi, system= Histamine H4 receptor (Homo sapiens), query= N#Cc1cc(F)cc(C#Cc2csc(F)n2)c1 )
Key: < 5.00

====

target-desc: UniProt P28223
Sequence (P28223 whole entry): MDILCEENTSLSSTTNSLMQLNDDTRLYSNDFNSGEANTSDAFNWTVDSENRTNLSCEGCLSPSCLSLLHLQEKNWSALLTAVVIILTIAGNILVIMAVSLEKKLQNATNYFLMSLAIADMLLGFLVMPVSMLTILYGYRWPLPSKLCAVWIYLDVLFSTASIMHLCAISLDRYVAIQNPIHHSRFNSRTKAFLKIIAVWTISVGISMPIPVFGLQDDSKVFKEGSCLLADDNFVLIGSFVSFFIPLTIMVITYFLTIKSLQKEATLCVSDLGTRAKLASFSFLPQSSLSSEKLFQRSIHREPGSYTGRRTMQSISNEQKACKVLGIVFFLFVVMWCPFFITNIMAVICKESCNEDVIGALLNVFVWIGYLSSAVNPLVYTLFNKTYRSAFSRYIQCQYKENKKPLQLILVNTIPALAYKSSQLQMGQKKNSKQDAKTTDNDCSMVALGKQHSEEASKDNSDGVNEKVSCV
test-summary: Binding affinity to 5HT2A receptor
metric: Ki

Exercise: Need Ki, item N#Cc1cc(F)cc(C#Cc2csc(F)n2)c1
Key: > 10 µM

====

test-summary: Binding affinity to GABAA receptor
metric: Ki

Exercise: Would you kindly share the measured Ki for N#Cc1cc(F)cc(C#Cc2csc(F)n2)c1 ?
Key: > 10 µM

====

target-desc: Kappa-type opioid receptor (Homo sapiens, UniProt P41145)
Sequence (P41145 whole entry): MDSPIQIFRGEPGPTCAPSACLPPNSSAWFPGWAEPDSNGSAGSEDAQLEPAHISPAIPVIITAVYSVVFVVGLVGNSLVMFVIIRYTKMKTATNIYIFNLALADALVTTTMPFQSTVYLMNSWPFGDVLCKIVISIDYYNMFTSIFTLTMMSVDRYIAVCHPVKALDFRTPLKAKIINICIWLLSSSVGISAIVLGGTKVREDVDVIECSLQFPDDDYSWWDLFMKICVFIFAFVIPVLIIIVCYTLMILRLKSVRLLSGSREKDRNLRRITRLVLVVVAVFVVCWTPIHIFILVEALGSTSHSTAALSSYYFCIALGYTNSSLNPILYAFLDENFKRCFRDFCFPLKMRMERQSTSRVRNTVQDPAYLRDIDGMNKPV
pKi: −log10 of the molar value.
metric: pKi

Exercise: Give the reported pKi for N#Cc1cc(F)cc(C#Cc2csc(F)n2)c1 (system: Kappa-type opioid receptor (Homo sapiens, UniProt P41145)).
Key: < 5.00

====

test-summary: Binding affinity to NMDA receptor PCP binding site
pKi: −log10 of the molar value.
metric: pKi

Exercise: Query (molecule): N#Cc1cc(F)cc(C#Cc2csc(F)n2)c1 ; field requested: pKi
Key: < 5.00
